Each entry below carries its measured Ki, system: MCL-1 protein (Homo sapiens, UniProt Q07820).
Sequence (Q07820 171-327): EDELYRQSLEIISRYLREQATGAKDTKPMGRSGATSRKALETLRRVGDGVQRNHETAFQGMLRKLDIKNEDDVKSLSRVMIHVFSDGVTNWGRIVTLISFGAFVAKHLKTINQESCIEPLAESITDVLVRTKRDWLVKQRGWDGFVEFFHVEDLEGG
reportedMetric: Ki (pM)

Consider the worked cases shown below.
molecule	unitName	Ki
Cc1c(C(=O)O)n2c3ccc(Cl)c(c13)-c1c(nn(C)c1C)CSCc1cc(n(C)n1)CSc1cc(cc3c1CCC3)OCCC2 (single isomer, unassigned) [Example 12-2]	pM	5700
Cc1c(C(=O)O)n2c3ccc(Cl)c(c13)-c1c(nn(C)c1C)CSCc1cc(n(C)n1)CSc1cc(c3ccccc3c1)OCCC2 (single isomer, unassigned)	pM	110
Cc1c(C(=O)O)n2c3ccc(Cl)c(c13)-c1c(nn(C)c1C)CN(C)Cc1cc(n(C)n1)CSc1cc(c3ccccc3c1)OCCC2 [Example 3]	pM	600
Cc1c(C(=O)O)n2c3ccc(Cl)c(c13)-c1c(nn(C)c1C)CSCc1cc(n(C)n1)CCc1cc3c(c(c1)OCCC2)CCCC3 (single isomer, unassigned)	pM	460
Cc1c(C(=O)O)n2c3ccc(Cl)c(c13)-c1c(nn(C)c1C)CSCc1cc(n(C)n1)CSc1cc3c(c(c1)OCCC2)CCCC3 (single isomer, unassigned)	pM	15000

(a) Cc1c(C(=O)O)n2c3ccc(Cl)c(c13)-c1c(nn(C)c1C)CSCc1cc(n(C)n1)CCc1cc(c3ccccc3c1)OCCC2 (single isomer, unassigned)
(b) Cc1c(C(=O)O)n2c3ccc(Cl)c(c13)-c1c(nn3c1CCCC3)CSCc1cc(n(C)n1)CSc1cc(c3ccccc3c1)OCCC2
Request: Choose between a and b : whose measured Ki value is numerically larger? To answer, give the label that identifies your chosen option.
Result: b
(b: 7900 pM, a: 150 pM)

(a) Cc1c2c(nn1C)CSCc1cc(n(C)n1)CSc1cc(c3ccccc3c1)OCCCn1c(C(=O)O)cc3c-2c(Cl)ccc31 (single isomer, unassigned) [Example 1-2]
(b) Cc1c(C(=O)O)n2c3ccc(Cl)c(c13)-c1c(nn(C)c1C)CN(C)Cc1cc(n(C)n1)CSc1cc(c3ccccc3c1)OCCC2 (single isomer, unassigned) [Example 3-1]
Request: Between a and b , which one has the lower reported Ki value? # answer = label of selected item
Result: b

* * *

Reported Ki values, MCL-1 protein (Homo sapiens, UniProt Q07820).
reportedMetric: Ki (nM)

(P) Cc1c(C(=O)O)n2c3ccc(Cl)c(c13)-c1c(nn(C)c1C)CSCc1cc(n(C)n1)CSc1cc3c(c(c1)OCCC2)CCC3 (single isomer, unassigned)
(Q) Cc1cc2cc(c1)SCc1cc(nn1C)CN(C)Cc1nn(C)c(C)c1-c1c(Cl)ccc3c1c(C)c(C(=O)O)n3CCCO2
(R) Cc1c(C(=O)O)n2c3ccc(Cl)c(c13)-c1c(nn(C)c1C)CSCc1cc(n(C)n1)CSc1cc(cc3c1CCC3)OCCC2 (single isomer, unassigned) [Example 12-1]
(S) Cc1c2c(nn1C)CSCc1cc(n(C)n1)CSc1cc(c3ccccc3c1)OCCCn1c(C(=O)O)cc3c-2c(Cl)ccc31 (single isomer, unassigned) [Example 1-1]
Request: Order the above compounds by increasing Ki. Quick reminder: the answer is the labels in the order asked.
Result: P, R, S, Q
